system: NCI-H1975; experiment: Inhibition of cell proliferation, NCI-H1975 (CCK-8); type: cell-based; details: Homo sapiens, NCI-H1975 cells, read-out: Inhibition activity on the proliferation of different cell lines NCI-H1975 (IC50)
Structures can show the parent of a compound that is named as a salt.
parameter: IC50

| compound | parameter | observed |
| --- | --- | --- |
| C[C@@H]1OCC2(CCN(c3cnc(Sc4cccc(NC(=O)c5ccc(N6CCC(N7CC=C(c8ccc(C(=O)NCc9ccc%10c(c9)CN(C9CCC(=O)NC9=O)C%10=O)c(F)c8)CC7)CC6)c(F)c5)c4)cn3)CC2)[C@@H]1N (some centres unmarked) | IC50 | < 1 µM |
| C[C@@H]1OCC2(CCN(c3cnc(Sc4cccc(NC(=O)c5ccc(N6CCC(N7CC=C(c8ccc(C(=O)NCc9ccc%10c(c9)CN(C9CCC(=O)NC9=O)C%10=O)nc8)CC7)CC6)c(F)c5)c4)cn3)CC2)[C@@H]1N (some centres unmarked) | IC50 | < 1 µM |
| CC1(N)CCN(c2cnc(Sc3cccc(NC(=O)c4ccc(N5CCC(N6CC=C(c7ccc(C(=O)NCc8ccc9c(c8)CN(C8CCC(=O)NC8=O)C9=O)nc7)CC6)C5)cc4)c3)cn2)CC1 (centres unmarked) | IC50 | 1 to 5 µM |
| C[C@@H]1OCC2(CCN(c3cnc(Sc4cccc(NC(=O)c5ccc(N6CCC(N7CCN(c8ccc(C(=O)NCc9ccc%10c(c9)CN(C9CCC(=O)NC9=O)C%10=O)c(F)c8)CC7)CC6)c(F)c5)c4)cn3)CC2)[C@@H]1N (some centres unmarked) [Compound 501, hydrochloride] | IC50 | 1 to 5 µM |

Notebook: C[C@@H]1OCC2(CCN(c3cnc(Sc4cccc(NCc5ccc(N6CCC(N7CC=C(c8ccc(C(=O)NCc9ccc%10c(c9)CN(C9CCC(=O)NC9=O)C%10=O)nc8)CC7)CC6)c(F)c5)c4)cn3)CC2)[C@@H]1N (some centres unmarked) , IC50 read as < 1 µM

====

Let's look at some molecules and their measured DC50.
target: SHP2 protein (Homo sapiens, UniProt Q06124); experiment: Degradation activity on SHP2 protein in MIA Paca-2 cells (Western blot, DC50); type: cell-based; design: endogenous in cells; host or cells: MIA Paca-2 cells; details: read-out: Degradation activity for differenct cell lines MIA Paca-2 (DC50)
Sequence (Q06124 whole entry): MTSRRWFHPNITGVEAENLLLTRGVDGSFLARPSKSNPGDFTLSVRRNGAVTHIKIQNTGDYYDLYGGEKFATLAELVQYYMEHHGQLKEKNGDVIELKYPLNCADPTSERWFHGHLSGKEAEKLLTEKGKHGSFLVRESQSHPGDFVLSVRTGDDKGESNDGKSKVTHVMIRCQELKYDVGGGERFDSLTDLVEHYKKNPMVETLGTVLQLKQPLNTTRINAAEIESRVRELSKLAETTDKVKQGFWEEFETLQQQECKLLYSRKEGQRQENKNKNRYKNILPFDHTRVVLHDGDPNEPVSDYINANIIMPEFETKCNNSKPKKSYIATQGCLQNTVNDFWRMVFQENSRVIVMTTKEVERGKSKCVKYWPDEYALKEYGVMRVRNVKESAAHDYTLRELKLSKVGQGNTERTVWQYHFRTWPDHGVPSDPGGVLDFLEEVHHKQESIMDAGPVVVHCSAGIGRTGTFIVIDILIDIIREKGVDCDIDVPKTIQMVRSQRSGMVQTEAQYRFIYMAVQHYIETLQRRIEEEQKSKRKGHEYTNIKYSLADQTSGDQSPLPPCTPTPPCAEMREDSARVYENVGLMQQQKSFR

Sample records with DC50:
| molecule | DC50 |
| --- | --- |
| C[C@@H]1OCC2(CCN(c3cnc(Sc4cccc(NC(=O)c5ccc(CN6CC7(CCN(c8ccc(C(=O)NCc9ccc%10c(c9)CN(C9CCC(=O)NC9=O)C%10=O)cn8)C7)C6)cc5)c4)cn3)CC2)[C@@H]1N (stereo partly drawn) [Compound 490] | 100 to 1000 nM |
| C[C@@H]1OCC2(CCN(c3cnc(Sc4cccc(NC(=O)C5CC(N6CC=C(c7ccc(C(=O)NCc8ccc9c(c8)CN(C8CCC(=O)NC8=O)C9=O)nc7)CC6)C5)c4)cn3)CC2)[C@@H]1N (stereo partly drawn) [Compound 477] | < 100 nM |

Now take the following molecule into account.
Notebook: CC1(N)CCN(c2cnc(Sc3cccc(NC(=O)c4ccc(-c5ccc(N6CCC7(CC6)CC(C(=O)NCc6ccc8c(c6)CN(C6CCC(=O)NC6=O)C8=O)C7)cc5)cc4)c3)cn2)CC1 (stereo not drawn) [Compound 415] , DC50 read as > 1000 nM

====

molecular target: SHP2 protein (Homo sapiens, UniProt Q06124); test: Degradation activity on SHP2 protein in MIA Paca-2 cells (Western blot, DC50); type: cell-based; set-up: endogenous in cells; host or cells: MIA Paca-2 cells; conditions: read-out: Degradation activity for differenct cell lines MIA Paca-2 (DC50)
parameter: DC50

| compound | assay.target | DC50 |
| --- | --- | --- |
| C[C@@H]1OCC2(CCN(c3cnc(Sc4cccc(NC(=O)c5cccc(CN6CCN(c7ccc8c(c7)CN(C7CCC(=O)NC7=O)C8=O)CC6)c5)c4)cn3)CC2)[C@@H]1N (some centres unmarked) | SHP2 protein (Homo sapiens, UniProt Q06124) | > 1000 nM |

Now take the following compound into account.
Notebook: CC1(N)CCN(c2cnc(Sc3cccc(NC(=O)c4csc(N5CCC(N6CC=C(c7ccc(C(=O)NCc8ccc9c(c8)CN(C8CCC(=O)NC8=O)C9=O)nc7)CC6)CC5)n4)c3)cn2)CC1 (centres unmarked) , DC50 read as > 1000 nM

====

Let's look at some molecules and their measured DC50.
molecular target: SHP2 protein (Homo sapiens); test: Degradation activity on SHP2 protein in MIA Paca-2 cells (Western blot, DC50); assay type: cell-based; design: endogenous in cells; host or cells: MIA Paca-2 cells; settings: read-out: Degradation activity for differenct cell lines MIA Paca-2 (DC50)

Sample records with DC50:
| molecule | DC50 |
| --- | --- |
| C[C@@H]1OCC2(CCN(c3cnc(Sc4cccc(NC(=O)c5ccc(CN6CCN(c7ccc8c(c7)C(=O)N(C7CCC(=O)NC7=O)C8=O)CC6)cc5)c4)cn3)CC2)[C@@H]1N (some centres unmarked) | > 1000 nM |
| Cc1ncsc1-c1ccc([C@H](C)NC(=O)[C@@H]2C[C@@H](O)CN2C(=O)[C@@H](NC(=O)c2cnc(N3CCC(OCCCCCCCC(=O)Nc4cccc(Sc5cnc(N6CCC(C)(N)CC6)cn5)c4)CC3)nc2)C(C)(C)C)cc1 | < 100 nM |
| CC1(N)CCN(c2cnc(Sc3cccc(NC(=O)CCCCCOC4CC5(CCN(c6ccc(C(=O)NCc7ccc8c(c7)CN(C7CCC(=O)NC7=O)C8=O)nn6)C5)C4)c3)cn2)CC1 (centres unmarked) | < 100 nM |
| CC1(N)CCN(c2cnc(Sc3cccc(NC(=O)c4ccc(N5CCC(N6CCN(c7cnc(C(=O)NCc8ccc9c(c8)CN(C8CCC(=O)NC8=O)C9=O)cc7Cl)CC6)CC5)cc4F)c3)cn2)CC1 (centres unmarked) | < 100 nM |

Notebook: CC1(N)CCN(c2cnc(Sc3cccc(NC(=O)c4ccc(-c5ccc(N6CCC7(CC6)CC7C(=O)NCc6ccc7c(c6)CN(C6CCC(=O)NC6=O)C7=O)cc5)cc4)c3)cn2)CC1 (centres unmarked) , DC50 read as > 1000 nM

====

Let's look at some compounds and their measured DC50.
biological target: SHP2 protein (Homo sapiens, UniProt Q06124); assay: Degradation activity on SHP2 protein in MV-411 cells (Western blot, DC50); type: cell-based; design: endogenous in cells; conditions: MV411 cells, 24 hours, read-out: Degradation activity for differenct cell lines MV411 (DC50)

Value sought: DC50, system SHP2 protein (Homo sapiens, UniProt Q06124), item Cc1ncsc1-c1ccc([C@H](C)NC(=O)[C@@H]2C[C@@H](O)CN2C(=O)[C@@H](NC(=O)CCCCCN2CCC3(C2)CN(CCC(=O)Nc2cccc(Sc4cnc(N5CCC(C)(N)CC5)cn4)c2)C3)C(C)(C)C)cc1 [Compound 46] . Result: < 100 nM

====

biological target: UniProt:Q06124; experiment: Degradation activity on SHP2 protein in MV-411 cells (Western blot, DC50); format: cell-based; set-up: endogenous in cells; details: MV411 cells, 24 hours, read-out: Degradation activity for differenct cell lines MV411 (DC50)
Let's look at some molecules and their measured DC50.

Sample records with DC50:
| molecule | assay.target | observed |
| --- | --- | --- |
| CC1(N)CCN(c2cnc(Sc3cccc(NC(=O)CCCCCCCCN4CCN(c5ncc(C(=O)NCc6ccc7c(c6)CN(C6CCC(=O)NC6=O)C7=O)cn5)CC4)c3)cn2)CC1 (stereo not drawn) | UniProt:Q06124 | < 100 nM |
| CC1(N)CCN(c2cnc(Sc3cccc(NC(=O)CCC(=O)N4CC5(CN(CCCCCCCC(=O)Nc6ccc7c(c6)C(=O)N(C6CCC(=O)NC6=O)C7)C5)C4)c3)cn2)CC1 (stereo not drawn) | UniProt:Q06124 | > 1000 nM |

Now take the following molecule into account.
Notebook: CC1(N)CCN(c2cnc(Sc3cccc(NC(=O)COCCOCCOCCOCC(=O)Nc4ccc5c(c4)C(=O)N(C4CCC(=O)NC4=O)C5)c3)cn2)CC1 (stereo not drawn) , DC50 read as 100 to 1000 nM

====

Target: UniProt:Q06124
Test: Degradation activity on SHP2 protein in MIA Paca-2 cells (Western blot, DC50)
Format: cell-based
Set-up: endogenous in cells; host or cells: MIA Paca-2 cells
Details: read-out: Degradation activity for differenct cell lines MIA Paca-2 (DC50)
Method: (1) MV-411 cells were cultured in the cell culture medium, and then well-growing cells were selected and inoculated in a 12-well plate, with 1 mL/well and 1×10^6 cells/well. The plate was incubated overnight in a 5% CO2 cell incubator at 37° C. (2) 10 mM storage solution of each drug was prepared using dimethylsulfoxide (DMSO). […] (3) After 24 hours of cultivation, the cells were lysed using RIPA cell lysate, and the proteins were extracted. The protein concentration was measured using a BCA assay kit. […]
parameter: DC50

Notebook: CC1(N)CCN(c2cnc(Sc3cccc(NC(=O)C4CC45CCN(C4CCN(c6ccc(C(=O)NCc7ccc8c(c7)CN(C7CCC(=O)NC7=O)C8=O)nn6)CC4)CC5)c3)cn2)CC1 (centres unmarked) , DC50 read as > 1000 nM

Notebook: Cc1ncsc1-c1ccc([C@H](C)NC(=O)[C@@H]2C[C@@H](O)CN2C(=O)[C@@H](NC(=O)c2cnc(N3CCC4(CN(CCC(=O)Nc5cccc(Sc6cnc(N7CCC(C)(N)CC7)cn6)c5)C4)C3)nc2)C(C)(C)C)cc1 , DC50 read as 100 to 1000 nM

Ref: patent US20240383908A1
